assay: Metabolic stability test: liver microsomal stability assay; format: in vitro ADME, mouse; settings: mouse liver microsomes 0.5 mg protein/mL, compound 1 µM, absence of NADPH
Positions of bridges follow the written chain, without caps; N, C: chain ends. Non-standard residues stand in square brackets, D forms with d. Residues, ends and D or L forms follow the SMILES beside them. *: point of attachment. NMeF = CN[C@@H](Cc1ccccc1)C(=O)O; NMeI = CC[C@H](C)[C@H](NC)C(=O)O; NMeD = CN[C@@H](CC(=O)O)C(=O)O; NMeL = CN[C@@H](CC(C)C)C(=O)O; d(β3hA) = C[C@@H](N)CC(=O)O; NMeA = CN[C@@H](C)C(=O)O; Piperidide = C1CCN(*)CC1; Abu = CC[C@H](N)C(=O)O; Sar = CNCC(=O)O
Let's look at some compounds and their measured Mouse Hepatic Microsome CLh,int NADPH(-).
Please respond with the number in µL/min/mg Protein and leave the unit unwritten.

# Compound, Unit abbreviation, Mouse Hepatic Microsome CLh,int NADPH(-)
rows = [
    ("CC[C@H](C)[C@@H]1NC(=O)[C@H](CC(C)C)N(C)C(=O)[C@H](C)N(C)C(=O)[C@H](C)N(C)C(=O)C[C@@H](C)NC(=O)[C@H](CC(C)C)NC(=O)[C@H](CC(C)C)N(C)C(=O)CN(C)C(=O)[C@H]([C@@H](C)O)NC(=O)[C@H]([C@@H](C)CC)N(C)C(=O)[C@H](CC(C)C)N(C)C(=O)[C@H](C(C)C)NC(=O)[C@H](Cc2ccccc2)N(C)C1=O [pd134] (cyclo(I[NMeF]V[NMeL][NMeI]T[Sar][NMeL]L[d(β3hA)][NMeA][NMeA][NMeL]))", "µL/min/mg Protein", 11.4),
]

Next item in the queue.
Would you mind telling me what Mouse Hepatic Microsome CLh,int NADPH(-) value was observed for CC[C@@H]1NC(=O)[C@H](CC(C)C)N(C)C(=O)[C@H](CC(C)C)NC(=O)[C@H](C)N(C)C(=O)C[C@@H](C(=O)N2CCCCC2)N(C)C(=O)[C@H](C)N(C)C(=O)[C@H](CC(C)C)NC(=O)[C@H](CC(C)C)N(C)C(=O)CNC(=O)[C@H]([C@@H](C)CC)N(C)C(=O)[C@H](Cc2ccccc2)N(C)C(=O)[C@H](C)NC(=O)[C@H]([C@@H](C)CC)NC(=O)[C@H](Cc2ccccc2)N(C)C1=O [pd075] ([NMeA]L[NMeL][Abu][NMeF]IA[NMeF][NMeI]G[NMeL]L[NMeA][NMeD]-Piperidide; lactam N-14) ?
42.8

---

assay: Membrane permeability test using Caco-2 cells with preincubation; assay type: in vitro ADME; details: Caco-2; preincubation 20 to 24 hours; Apical FaSSIF/HBSS pH 6.0, Basal HBSS 4% BSA pH 7.4; 180 minutes; read-out: Caco2 Papp
Starred links: 1 amine or outer side, 2 acyl side, 3 side chain; linkers in the order of their positions; H or OH if unused. Positions of bridges follow the written chain, without caps; N, C: chain ends. Non-standard residues stand in square brackets, D forms with d. Residues, ends and D or L forms follow the SMILES beside them. *: point of attachment. NMedβ3hAla = C[C@H](CC(=O)[*:2])N(C)[*:1]; NMeF = CN[C@@H](Cc1ccccc1)C(=O)O; NMeGABA = CN(CCCC(=O)[*:2])[*:1]; NMeI = CC[C@H](C)[C@H](NC)C(=O)O; NMeT = CN[C@H](C(=O)O)[C@@H](C)O; hPhe = N[C@@H](CCc1ccccc1)C(=O)O; NMeβAla = CN(CCC(=O)[*:2])[*:1]; NMeD = CN[C@@H](CC(=O)O)C(=O)O; NMeL = CN[C@@H](CC(C)C)C(=O)O; NMeV = CN[C@H](C(=O)O)C(C)C; d(β3hA) = C[C@@H](N)CC(=O)O; NMeAbu = CC[C@H](NC)C(=O)O; NMeA = CN[C@@H](C)C(=O)O; Piperidide = C1CCN(*)CC1; Abu = CC[C@H](N)C(=O)O; βAla = NCCC(=O)O; Sar = CNCC(=O)O; tBu = CC(C)(C)*
Measured parameter: Papp A→B (nm/s)
Lab book: enter the figure in nm/s, no units written.

# Molecule, Papp A→B, nm/s
measured = [
    ("CC[C@H](C)[C@@H]1NC(=O)[C@H]([C@@H](C)CC)N(C)C(=O)[C@@H](C)NC(=O)C[C@@H](C(=O)N2CCCCC2)N(C)C(=O)[C@H](C(C)C)NC(=O)[C@H](Cc2ccccc2)N(C)C(=O)[C@H](COC(C)(C)C)NC(=O)[C@H](CC(C)C)N(C)C(=O)[C@H](C)NC(=O)CN(C)C(=O)[C@H](CC(C)C)N(C)C(=O)[C@H](C)N(C)C(=O)[C@H](Cc2ccccc2)N(C)C1=O [pd151] ([dA][NMeI]I[NMeF][NMeA][NMeL][Sar]A[NMeL]S(tBu)[NMeF]V[NMeD]-Piperidide; lactam N-13)", 3.9),
    ("CC[C@H](C)[C@@H]1NC(=O)[C@@H]2CCCN2C(=O)[C@H](CC(C)C)N(C)C(=O)[C@H](CC(C)C)NC(=O)[C@H]([C@@H](C)CC)N(C)C(=O)[C@H]([C@@H](C)O)NC(=O)[C@H](Cc2ccccc2)N(C)C(=O)[C@H](CC)N(C)C(=O)[C@H](Cc2ccccc2)N(C)C(=O)[C@H](C(C)C)NC(=O)[C@H](CC(C)C)N(C)C(=O)[C@H](C)N(C)C(=O)C[C@@H](C(=O)N2CCCCC2)NC(=O)[C@H](C(C)C)N(C)C1=O [pd043] ([NMeA][NMeL]V[NMeF][NMeAbu][NMeF]T[NMeI]L[NMeL]PI[NMeV]D-Piperidide; lactam N-14)", 1.6),
    ("CC[C@H]1C(=O)N(C)[C@@H](C)C(=O)N(C)[C@@H](C(C)C)C(=O)N[C@H](C)CC(=O)N[C@H](C(C)C)C(=O)N(C)[C@@H](CC(C)C)C(=O)N[C@@H](CC(C)C)C(=O)N(C)[C@@H](C(C)C)C(=O)N(C)[C@@H](CC(C)C)C(=O)N(C)CC(=O)N[C@@H]([C@@H](C)O)C(=O)N(C)[C@@H](Cc2ccccc2)C(=O)N[C@@H](COC(C)(C)C)C(=O)N1C [pd131] (cyclo(L[NMeV][NMeL][Sar]T[NMeF]S(tBu)[NMeAbu][NMeA][NMeV][d(β3hA)][dV][NMeL]))", 21.8),
    ("CC[C@@H]1NC(=O)[C@H](C)N(C)C(=O)[C@H](C(C)C)N(C)C(=O)[C@H]([C@@H](C)CC)NC(=O)[C@H](C)N(C)C(=O)CCCN(C)C(=O)C[C@@H](C)NC(=O)[C@H](C(C)C)N(C)C(=O)[C@H](CCc2ccccc2)NC(=O)CCN(C)C(=O)[C@H]([C@@H](C)O)N(C)C(=O)[C@H](CC(C)C)N(C)C(=O)[C@H]([C@@H](C)CC)NC(=O)[C@H](Cc2ccccc2)N(C)C1=O [pd055] (cyclo([Abu][NMeF]I[NMeL][NMeT][NMeβAla][hPhe][NMeV][d(β3hA)][NMeGABA][NMeA]I[NMeV][NMeA]))", 1.2),
]

Any idea what Papp A→B was measured for CC[C@@H]1NC(=O)[C@H](Cc2ccccc2)N(C)C(=O)[C@H](C)N(C)C(=O)[C@H](CC(C)C)N(C)C(=O)[C@H](CC(C)C)NC(=O)CCCN(C)C(=O)C[C@@H](C(=O)N2CCCCC2)NC(=O)[C@H](CC(C)C)N(C)C(=O)[C@H](C)N(C)C(=O)[C@H]([C@@H](C)O)NC(=O)[C@H](CC(C)C)N(C)C(=O)[C@H](COC(C)(C)C)NC(=O)[C@H](Cc2ccccc2)N(C)C1=O [pd109] ([NMeGABA]L[NMeL][NMeA][NMeF][Abu][NMeF]S(tBu)[NMeL]T[NMeA][NMeL]D-Piperidide; lactam N-13) ?
8.3

Which Papp A→B value belongs to CC[C@H](C)[C@@H]1NC(=O)[C@H](CC(C)C)N(C)C(=O)[C@H](CC(C)C)NC(=O)[C@H](C)N(C)C(=O)C[C@@H](C)NC(=O)[C@H](CC(C)C)NC(=O)[C@H](CC(C)C)N(C)C(=O)CN(C)C(=O)[C@H](C(C)C)NC(=O)[C@H]([C@@H](C)CC)N(C)C(=O)[C@H](COC(C)(C)C)NC(=O)[C@H](CC(C)C)N(C)C(=O)CCNC(=O)[C@H](Cc2ccccc2)N(C)C1=O [pd007] (cyclo(I[NMeF][βAla][NMeL]S(tBu)[NMeI]V[Sar][NMeL]L[d(β3hA)][NMeA]L[NMeL])) ?
1.1

Return reported Papp A→B; argument: CC[C@H]1C(=O)N(C)[C@H](C)CC(=O)N[C@H](C(C)C)C(=O)N(C)[C@@H](CC(C)C)C(=O)N(C)[C@@H](C(C)C)C(=O)N[C@@H](C)C(=O)N(C)[C@@H](CC(C)C)C(=O)NCC(=O)N(C)[C@@H]([C@@H](C)O)C(=O)N(C)[C@@H](Cc2ccccc2)C(=O)N(C)[C@@H](CC)C(=O)N[C@@H](COC(C)(C)C)C(=O)N(C)[C@@H](C)C(=O)N(C)[C@@H](C(C)C)C(=O)N1C [pd071] (cyclo(A[NMeL]G[NMeT][NMeF][NMeAbu]S(tBu)[NMeA][NMeV][NMeAbu][NMedβ3hAla][dV][NMeL][NMeV]))
2.2

Can you share its Papp A→B? I mean this molecule: CC[C@H](C)[C@@H]1NC(=O)CN(C)C(=O)C[C@@H](C(=O)N2CCCCC2)N(C)C(=O)[C@H](C(C)C)NC(=O)[C@H](Cc2ccccc2)N(C)C(=O)[C@H](CC(C)C)N(C)C(=O)[C@H]([C@@H](C)O)NC(=O)[C@H](CC(C)C)N(C)C(=O)[C@H](CC(C)C)NC(=O)[C@H](C(C)C)N(C)C(=O)[C@H](C)N(C)C(=O)[C@H](CC(C)C)N(C)C(=O)[C@H](CCc2ccccc2)NC(=O)[C@H](CC(C)C)N(C)C1=O [pd092] ([Sar]I[NMeL][hPhe][NMeL][NMeA][NMeV]L[NMeL]T[NMeL][NMeF]V[NMeD]-Piperidide; lactam N-14)
0.9

Where do the numbers come from? From patent EP4768499A1.
